Each item that follows carries a reported Displacement %.
Target: Nluc-FZD6 (Homo sapiens)
Construct: expressed in transfected cells; host or cells: ΔSMO HEK293A or ΔFZD1–10 HEK293T cells (screen); ΔFZD1–10 HEK293T cells (concentration–response curves)
Sequence (O60353 19-706): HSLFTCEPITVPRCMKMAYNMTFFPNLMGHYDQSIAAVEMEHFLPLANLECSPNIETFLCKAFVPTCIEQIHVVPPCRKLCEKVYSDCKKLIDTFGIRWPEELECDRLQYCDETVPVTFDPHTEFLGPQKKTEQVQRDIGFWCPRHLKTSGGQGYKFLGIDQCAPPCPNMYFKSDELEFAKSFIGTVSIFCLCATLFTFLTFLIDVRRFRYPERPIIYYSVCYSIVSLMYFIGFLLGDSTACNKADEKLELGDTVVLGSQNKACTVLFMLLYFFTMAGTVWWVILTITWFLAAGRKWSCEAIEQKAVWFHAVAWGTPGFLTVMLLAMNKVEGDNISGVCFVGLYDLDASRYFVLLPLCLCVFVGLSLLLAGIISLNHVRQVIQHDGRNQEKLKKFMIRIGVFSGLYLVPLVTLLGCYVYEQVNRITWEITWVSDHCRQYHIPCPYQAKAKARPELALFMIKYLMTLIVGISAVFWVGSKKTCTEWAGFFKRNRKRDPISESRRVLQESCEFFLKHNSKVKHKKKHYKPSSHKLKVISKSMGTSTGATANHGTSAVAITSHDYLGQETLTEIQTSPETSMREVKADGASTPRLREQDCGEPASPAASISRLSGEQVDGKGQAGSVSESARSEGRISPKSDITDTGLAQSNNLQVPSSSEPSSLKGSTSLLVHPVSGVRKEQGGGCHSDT
Assay: BRET-based BODIPY-cyclopamine competition binding at Nluc-FZD6 in live HEK293 cells
Details: 10 µM compound; BODIPY-cyclopamine 300 nM; ClarioStar reader
Measure Name: Displacement % (%)

[[record]]
compound = "O=C(N[C@H]1CC[C@H](N(Cc2cccc(-c3ccncc3)c2)C(=O)c2sc3ccccc3c2Cl)CC1)c1ccco1"
tested_system = "Nluc-FZD6 (Homo sapiens)"
measure_name = "Displacement %"
recorded_result = 75.5

[[record]]
compound = "O=C(NC1CCC(N(Cc2ccc(-c3cccnc3)cc2)C(=O)c2sc3ccccc3c2Cl)CC1)c1ccco1 (stereo not shown)"
tested_system = "Nluc-FZD6 (Homo sapiens)"
measure_name = "Displacement %"
recorded_result = 70.9

[[record]]
compound = "CN[C@H]1CC[C@H](N(Cc2cccc(-c3ccncc3)c2)C(=O)c2sc3ccccc3c2Cl)CC1.Cl.Cl"
tested_system = "Nluc-FZD6 (Homo sapiens)"
measure_name = "Displacement %"
recorded_result = 36.1

[[record]]
compound = "CC(=O)Nc1cccc(C(=O)NC2CCC(N(Cc3cccc(-c4ccncc4)c3)C(=O)c3sc4ccccc4c3Cl)CC2)c1 (stereo not shown)"
tested_system = "Nluc-FZD6 (Homo sapiens)"
measure_name = "Displacement %"
recorded_result = 83.2

